# Target System: furin, P09958;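 also: purified furin at 1:10 enzyme:substrate in 50 mM HEPES pH 7.5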
# Sequence (P09958 whole entry): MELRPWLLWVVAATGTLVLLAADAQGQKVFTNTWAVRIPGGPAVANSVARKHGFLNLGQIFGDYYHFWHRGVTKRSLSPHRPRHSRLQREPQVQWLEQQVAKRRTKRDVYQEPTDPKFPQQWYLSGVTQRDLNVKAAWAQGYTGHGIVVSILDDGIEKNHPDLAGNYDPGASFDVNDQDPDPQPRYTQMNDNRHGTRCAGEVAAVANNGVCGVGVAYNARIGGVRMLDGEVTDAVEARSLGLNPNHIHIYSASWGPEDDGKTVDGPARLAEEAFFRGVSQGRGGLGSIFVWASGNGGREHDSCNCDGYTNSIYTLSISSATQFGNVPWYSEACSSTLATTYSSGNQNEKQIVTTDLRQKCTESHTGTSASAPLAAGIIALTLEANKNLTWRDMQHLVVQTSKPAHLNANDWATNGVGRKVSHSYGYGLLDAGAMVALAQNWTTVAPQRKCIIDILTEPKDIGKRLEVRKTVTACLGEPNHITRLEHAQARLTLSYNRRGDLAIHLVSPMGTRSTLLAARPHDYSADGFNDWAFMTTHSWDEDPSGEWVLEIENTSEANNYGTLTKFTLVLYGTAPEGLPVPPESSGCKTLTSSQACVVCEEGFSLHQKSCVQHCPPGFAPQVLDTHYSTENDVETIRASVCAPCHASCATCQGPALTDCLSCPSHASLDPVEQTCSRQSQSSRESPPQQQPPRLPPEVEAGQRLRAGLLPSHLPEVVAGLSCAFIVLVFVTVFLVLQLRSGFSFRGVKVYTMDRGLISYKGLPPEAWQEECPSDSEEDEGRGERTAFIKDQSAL
# Protocol Details: furin cleavage Z-score vs untreated control; higher = more cleavage, active = 3.5 or more, inactive = 1 or less, 8 variable residues between constant flanks
# Run Conditions: 30 min
This is one part of the list. The true hit rate is not given.
Your response should consist of one outcome taken from active, inactive

Before answering, review these 10 worked examples.
# Entry Sequence, Answer Label
data = [
    ("CATTPCSGSMAGNASASA [HC1926]", "inactive"),
    ("CAIPFYGKAIAGNASASA [HC847]", "inactive"),
    ("CAITRVESENAGNASASA [HC1281]", "inactive"),
    ("CAPEKGGRKPAGNASASA [HC1445]", "inactive"),
    ("CAIYQCCDLDAGNASASA [HC1490]", "inactive"),
    ("CAVTKRDVLDAGNASASA [FS-3144]", "inactive"),
    ("CAPLKRFKRAAGNASASA [FS-699]", "active"),
    ("CARSIRSTGSAGNASASA [FS-1971]", "active"),
    ("CACVREGNASAGNASASA [HC275]", "inactive"),
    ("CARSIRSSQNAGNASASA [FS-2806]", "active"),
]

Request: Field: outcome | Entry: CASDIRTEEAAGNASASA [HC1486]
Result: inactive

Request: Field: outcome | Entry: CAPLLLLLLAAGNASASA [HC558]
Result: inactive

Request: Field: outcome | Entry: CAWGENDTDVAGNASASA [HC425]
Result: inactive

Request: Field: outcome | Entry: CARDRSELSPAGNASASA [HC489]
Result: inactive

FYI, the data here is from the supplement of paper PMC3545927.
